Measured MIC values are reported for all entries that follow.
system: Aspergillus fumigatus; test: Antifungal activity against Aspergillus fumigatus ATCC 36607 after 24 hrs by microdilution method; type: functional; settings: ATCC 36607, 24 h

1) CCc1c(C)c(C#N)c2nc3ccccc3n2c1N1CCN(C)CC1 ... > 32 µg/mL

Q. Returns the measured MIC for the input compound. Input: "CCc1c(C)c(C#N)c2nc3ccccc3n2c1N1CCC(N(C)C)CC1"
A. > 128 µg/mL

Q. Returns the measured MIC for the input compound. Input: "CC(=O)OCCc1c(C)c(C#N)c2nc3ccccc3n2c1N1CC[C@H](N(C)C)C1"
A. > 128 µg/mL

Q. Returns the measured MIC for the input compound. Input: "CCc1c(C)c(C#N)c2nc3ccccc3n2c1NCCCN(C)C"
A. > 128 µg/mL

Q. Returns the measured MIC for the input compound. Input: "Cc1c(F)c(N2CC[C@H](N(C)C)C2)n2c(nc3ccccc32)c1C#N"
A. > 128 µg/mL

Q. Returns the measured MIC for the input compound. Input: "CCc1c(C)c(C#N)c2nc3ccccc3n2c1NCCN(CC)CC"
A. > 128 µg/mL

====

test system: Pichia kudriavzevii; test: Antifungal activity against Candida krusei TIMM 0269 after 24 hrs by microdilution method; type: functional; details: TIMM 0269, 24 h
PARAMETER: MIC (µg/mL)
Numeric only. Scale: µg/mL

1. CCc1c(C)c(C#N)c2nc3ccccc3n2c1NCCN ... 32
2. OC(Cn1cncn1)(Cn1cncn1)c1ccc(F)cc1F ... 16
3. CCc1c(C)c(C#N)c2nc3ccccc3n2c1N1CC[C@H](N(C)C)C1 ... 2
4. CN(C)[C@H]1CCN(c2c(-c3ccccc3)cc(C#N)c3nc4ccccc4n23)C1 ... 2
5. Cc1cc(N2CC[C@H](N(C)C)C2)n2c(nc3ccccc32)c1C#N ... 32

Q. Reported MIC for Pichia kudriavzevii, given "CCc1c(C)c(C#N)c2nc3ccccc3n2c1N1CC[C@@H](N(C)C)C1" ?
A. 16

Q. Reported MIC for Pichia kudriavzevii, given "CCCCc1c(C)c(C#N)c2nc3ccccc3n2c1N1CC[C@H](N(C)C)C1" ?
A. 0.5

Q. Reported MIC for Pichia kudriavzevii, given "Cc1c(CCO)c(N2CC[C@H](N(C)C)C2)n2c(nc3ccccc32)c1C#N" ?
A. 16

Q. Reported MIC for Pichia kudriavzevii, given "CC(=O)OCCc1c(C)c(C#N)c2nc3ccccc3n2c1N1CC[C@H](N(C)C)C1" ?
A. 4

Q. Reported MIC for Pichia kudriavzevii, given "CCc1c(C)c(C#N)c2nc3ccccc3n2c1NCCN(CC)CC" ?
A. 4

Q. Reported MIC for Pichia kudriavzevii, given "Cc1c(F)c(N2CC[C@H](N(C)C)C2)n2c(nc3ccccc32)c1C#N" ?
A. 16

====

Measured MIC values are reported for all entries that follow.
tested on: Candida tropicalis; experiment: Antifungal activity against Candida tropicalis TIMM 0313 after 24 hrs by microdilution method; type: functional; conditions: TIMM 0313, 24 h
Numeric only. Scale: mg/L

1) CCc1c(C)c(C#N)c2nc3ccccc3n2c1N1CC[C@H](N(C)C)C1 ... 32

In the following, a different molecule is considered.
Q. Returns the measured MIC for the input molecule. Input: "CN(C)[C@H]1CCN(c2c(-c3ccccc3)cc(C#N)c3nc4ccccc4n23)C1"
A. 8
